The reported measurements were obtained from patent US20180193454A1.

# System: T1, human CD154 (human, UniProt P29965 113-261, limits assumed)
# T1 construct: also called CD154 antigen; CD40L
# T1 sequence (looked up): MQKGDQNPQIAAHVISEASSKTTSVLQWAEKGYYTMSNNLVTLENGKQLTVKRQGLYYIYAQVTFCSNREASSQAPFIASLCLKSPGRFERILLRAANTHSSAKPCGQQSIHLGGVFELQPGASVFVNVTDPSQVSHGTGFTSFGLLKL
# Test Name: SPR, Biacore 3000, 25 C; antibody immobilized, CD154 antigen flowed over; average n = 6
Quantity: Kd (nM)
Give a bare numeral; the unit nM is implied.

• variant 28, humanized anti-human CD154 antibody derived from IDEC-131 (antibody, V domains shown) VH: EVQLQESGPGLVKPSETLSLTCTVSGDSITNGFWIWIRKPPGNKLEYMGYISYSGSTYYNPSLKSRISISRDTSKNQFSLKLSSVTAADTGVYYCAYRSYGRTPYYFDYWGQGTTLTVSS VL: DIVMTQSPSFLSASVGDRVTITCKAPSSLGHAVAWYQQKPGKSPKLLIYSASNRYTGVPDRFSGSGSGTDFTLTISSLQPEDFADYFCQQYDDYPYTFGGGTKLEIK = 0.0315
• variant 24, humanized anti-human CD154 antibody derived from IDEC-131 (antibody, V domains shown) VH: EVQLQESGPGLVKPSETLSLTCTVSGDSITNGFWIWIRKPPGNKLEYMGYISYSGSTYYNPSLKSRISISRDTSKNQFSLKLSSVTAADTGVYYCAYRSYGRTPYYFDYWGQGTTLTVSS VL: DIVMTQSPSFLSASVGDRVTITCKAPQNLGTAVAWYQQKPGKSPKLLIYSASNRYTGVPDRFSGSGSGTDFTLTISSLQPEDFADYFCQQYDDYPYTFGGGTKLEIK = 0.0364

Reported Kd for IDEC-131, humanized anti-human CD154 IgG1 antibody (antibody, V domains shown, Humanized human IgG1 derived from mouse antibody 24-31) VH: EVQLQESGPGLVKPSETLSLTCTVSGDSITNGFWIWIRKPPGNKLEYMGYISYSGSTYYNPSLKSRISISRDTSKNQFSLKLSSVTAADTGVYYCACRSYGRTPYYFDFWGQGTTLTVSS VL: DIVMTQSPSFLSASVGDRVTITCKASQNVITAVAWYQQKPGKSPKLLIYSASNRYTGVPDRFSGSGSGTDFTLTISSLQPEDFADYFCQQYNSYPYTFGGGTKLEIK was 0.151
